Cited source: the RNAGym collection of RNA variant scans (doi:10.7554/elife.80360)

B1: HDV Ribozyme (parent)
chain: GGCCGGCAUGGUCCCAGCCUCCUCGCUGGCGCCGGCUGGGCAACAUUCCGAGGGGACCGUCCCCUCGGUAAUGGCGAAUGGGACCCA

- Variants of: B1
- PROCEDURE SUMMARY: self-cleavage, relative activity (ratio to wild type); higher = more cleavage; co-transcriptional
Record form. Attribute: self-cleavage. Fill in for each entry.
One number for each entry.

GGCCGGAAUGGUCCCAGCCUCCUCGCUGGCGCCGGCUGGGCAACAUUCCGAGGGGACCGUCCCCUCGGUAUUGGCGAAUGGGACCCA [C7A A71U]
0.462
GGCCGGCAUGGUCCAAGCCUCCUCGCUGGCGCCGGCUGGGCAACAUUCCGGGGGGACCGUCCCCUCGGUAAUGGCGAAUGGGACCCA [C15A A51G]
0.923
GGCCGGCAUGGUCCAAGCCUCGUCGCUGGCGCCGGCUGGGCAACAUUCCGAGGGGACCGUCCCCUCGGUAAUGGCGAAUGGGACCCA [C15A C22G]
0.113
GGCCGGCAUGGUCCCAGCCUCCACGCUGGUGCCGGCUGGGCAACAUUCCGAGGGGACCGUCCCCUCGGUAAUGGCGAAUGGGACCCA [U23A C30U]
0.554
GGCCGGUAUGGUCCCAGCCUCCUCGCUGGCGCAGGCUGGGCAACAUUCCGAGGGGACCGUCCCCUCGGUAAUGGCGAAUGGGACCCA [C7U C33A]
0.0831
GGCCGGCAUGGUCCCAGCCUCCUCGCUGGCGCCGGCUGGGCAACAUUCCGAGGGGACCGUCCCCUCGAUAAUGGCGAAUAGGACCCA [G68A G80A]
0.367
GGCCGGCAUGGUCCCAGCCUCCUCGCUGGCGCCGGCUGGGCAACAUUCCGAGGAGACCGUCCCCUCGGUCAUGGCGAAUGGGACCCA [G54A A70C]
0.779
GGCCGGCAUGGUCCCAGCCUCCUCGCUGGCGCCGGCUCGGCAACAUUCCGAGGGGACCGUCCCCUCGAUAAUGGCGAAUGGGACCCA [G38C G68A]
0.172
GGCCGGCAUGGUCCCAGCCUCCUCGCUGGCGCCGGCUGGGCAACGUUCCGAGGGGACCGUCCCCUCGGUAAUGGCGAAUGGGACCCA [A45G]
0.918
GGCCGGCAUGGUCCCAGCCUCCUCGCUGGCGCCGGCUGGGCAACAUGCCGAGGGGUCCGUCCCCUCGGUAAUGGCGAAUGGGACCCA [U47G A56U]
1.11

For each of the variants below, state self-cleavage.
1. GGGCGGCAUGGUCCCAGCCUCCUCGCUGGCGCCGGCUGGGCAACAUUCCAAGGGGACCGUCCCCUCGGUAAUGGCGAAUGGGACCCA [C3G G50A]
2. GGCCGGCAUGGUCCCAGCCUCCUCGCUGGCGCCGGCUGGGCAACAUUCCGAGGGGACCGUCCCCUCCGUCAUGGCGAAUGGGACCCA [G67C A70C]
3. GGCCGGAAUGGUCCCAGCCUCCUCGCUGGCGCCGGCUGGGCAACAUUCCGAGGGGACCGUCCCCUCGGCAAUGGCGAAUGGGACCCA [C7A U69C]
4. GCCCGGCAUGGUCCCAGCCUCCUCGCUGGCGCCGGAUGGGCAACAUUCCGAGGGGACCGUCCCCUCGGUAAUGGCGAAUGGGACCCA [G2C C36A]
5. GGCCGGCAUGGUCCCAGCCUCCUCGCUGCCGCCGGCUGGGCAACAUUCCGAGGGGACCGUCCCCUCGGUAAUGGCGAAGGGGACCCA [G29C U79G]
6. AGCCGGCAUGGUCCCAGCCUCCUCGCUGGCGCCGGCUGGGCAACAUUCCGAGGGGACCGUCCCCUCGGUAAUGGCGAAAGGGACCCA [G1A U79A]

[0.589, 0.655, 0.617, 0.138, 0, 0.208]

For each of the variants below, state self-cleavage.
1. GACCGGCAUGGUCCCAGCCUCCUCGCUGGCGCCGGCUGGGCUACAUUCCGAGGGGACCGUCCCCUCGGUAAUGGCGAAUGGGACCCA [G2A A42U]
2. GGCCGGCAUGGUCCCAGCCACCUCGCUGGCGCCGGCUGGGCAACAUUCCGAGGGGACCGUCCCCUCGGUAAUGGCGAGUGGGACCCA [U20A A78G]
3. GGCCGGCAUGGUCCCAGUCUCCUCGCUGGCGCCGGCUGGGCUACAUUCCGAGGGGACCGUCCCCUCGGUAAUGGCGAAUGGGACCCA [C18U A42U]
4. GGCCGGCAUGGUCCCAACCUCCUUGCUGGCGCCGGCUGGGCAACAUUCCGAGGGGACCGUCCCCUCGGUAAUGGCGAAUGGGACCCA [G17A C24U]
5. GACCGGCAUGGUCCCAGCCUCCUCGCUGGCGCCGGCUGGGCAACAUUCCGAGGGGACCGUCCCCUCGGUAAUGGCGAAUGGGACCCA [G2A]
6. GGCCGGCAUGGUACCAGCCUCCUCGCUGGCGCCGGCUGGGCAACAUUCCGAGGGGACCGUCCCCUCGGUUAUGGCGAAUGGGACCCA [C13A A70U]

0.0804
0
0.0627
0.26
0.2
0.0405

For each of the variants below, state self-cleavage.
1. GGCCGGCAUGGUCCCAGCCUCCUCGCUGGCGCCGGCUGGGCAACAUUCCCAGGGGACCGUCCCCUCGGUAAUGGGGAAUGGGACCCA [G50C C75G]
2. GACCGGCAUGGUCCCGGCCUCCUCGCUGGCGCCGGCUGGGCAACAUUCCGAGGGGACCGUCCCCUCGGUAAUGGCGAAUGGGACCCA [G2A A16G]
3. GGCCGGCAUGGUCCCAGCCUCCUCGCUGGCGCCGGCUGGGCAACAUUCCGAGGGGACCGUCCCCUCGGUAAUGGCGAGUGGGACCCU [A78G A87U]
4. GGCCGGCAUGGUCCCAGCCUCCUCGCUGGCGCCGGCUGGGCAACACUCCGAGGGGACCGUCCCCUCGGUAAUGGCAAAUGGGACCCA [U46C G76A]
5. GGCCGGCAUGGUCCCAGCCUCCUCGCUGGCGCCGGAUGGGCAACAUUCCGAGGGGACCGUCCCCUCGGUAAUGGGGAAUGGGACCCA [C36A C75G]
6. GGCCGGCAUGGUCCCAGCCUCCUCGCUGGCGCAGGCUGGGCAACAUUCCAAGGGGACCGUCCCCUCGGUAAUGGCGAAUGGGACCCA [C33A G50A]
7. GGCCGGCAUGGUCCCAGCCUCCUCGCUGGCGCCGGCUGGGCAACAUUCCGAGGGGACCGUCCCCUCGGUUAUGGCGAAUGGGACCCG [A70U A87G]

0
0.237
0.862
1.01
0.154
0.215
1.02

For each of the variants below, state self-cleavage.
1. GGCCGGCAUGGUCCCAGCCUCCUCGCUGGCGCCGGCUGGGCAACAUUCCAAGGGGACAGUCCCCUCGGUAAUGGCGAAUGGGACCCA [G50A C58A]
2. GGCCGGCAUGGUCCCAGCCUCCUCGCUGGCGCCGGCUGGGCAACAUUCCGAGGGGACCGACCCCGCGGUAAUGGCGAAUGGGACCCA [U60A U65G]
3. GGCCGGCAUGGUCCCAGCCACCUCGCUGGCGCCGGCUGGCCAACAUUCCGAGGGGACCGUCCCCUCGGUAAUGGCGAAUGGGACCCA [U20A G40C]
4. GGCCGGCAUGGUCCCAGCCUUCUCGCUGGCGCCGGCUUGGCAACAUUCCGAGGGGACCGUCCCCUCGGUAAUGGCGAAUGGGACCCA [C21U G38U]
5. GGCCGGCAUGGUCCCAGGCUCCUUGCUGGCGCCGGCUGGGCAACAUUCCGAGGGGACCGUCCCCUCGGUAAUGGCGAAUGGGACCCA [C18G C24U]

1: 1.12; 2: 1.09; 3: 0.178; 4: 0.135; 5: 0.107

For each of the variants below, state self-cleavage.
1. GGCCGGCAUGGUCCCAGCCUCCUCGCUGGCGCCGGCUGGGCAACAUUCCGAGGGGACAGUCCCCUCGGUAAUGGCGAAUGGGCCCCA [C58A A83C]
2. GGCCGGCAUGGUCCCAGCCUCCUCGCUGGCGCCGGCUGGGCAACAUUCCGAGGGGACCGUCUCCUCGGUAAUGGCGAAUGGGAACCA [C62U C84A]
3. GGCCGGCAUGGUCCCAGCCUCCUCGCUGGCGCCGGCUGGGCAACAUUCCGAGUGGACUGUCCCCUCGGUAAUGGCGAAUGGGACCCA [G53U C58U]

1. 0.723
2. 1.14
3. 1.03

For each of the variants below, state self-cleavage.
1. GGCCGGCAUGGUCCCAGCCUCCUCGCUGGCGCCGGCUGGGCAACAUUCCGAGGGAACAGUCCCCUCGGUAAUGGCGAAUGGGACCCA [G55A C58A]
2. GGCCGGCAUGGUUCCAGCCUCCUCGCUGGCGCCGGCUGGGCAACAUUCCGAGGGGACCGUCCCCUCGGUAAUGGCGAAUCGGACCCA [C13U G80C]
3. GGCCGGCUUGGUCCCAGCCUCCUCGCUGGCGCAGGCUGGGCAACAUUCCGAGGGGACCGUCCCCUCGGUAAUGGCGAAUGGGACCCA [A8U C33A]
4. GGCCGGCAUGGUCCCAGCCUCCUCGCUGGCGCCGGCUUGGCAACAUUCCGAGAGGACCGUCCCCUCGGUAAUGGCGAAUGGGACCCA [G38U G53A]

[0.978, 0.0332, 0.185, 0.369]

For each of the variants below, state self-cleavage.
1. GGCCGGCAUGGUCCCAGCCUCCUCGCUGGCGCCGGCUGGGCAACAUUCCGAGGAGACCGUCCCCUCGGUAAUGUCGAAUGGGACCCA [G54A G74U]
2. GGCCGGCGUGGUCCCAGCCUCCUCGCUGGCGCCGGCUGGGCAACAUUCCGAGGGGACCAUCCCCUCGGUAAUGGCGAAUGGGACCCA [A8G G59A]
3. GGCCGGCAUGGUCCCAGCCUCCUCGCUGGCGCAGGCUGGGCAACAUUCCGAGGGGACCGUGCCCUCGGUAAUGGCGAAUGGGACCCA [C33A C61G]
4. GGCCGGCAUGGUCCCAGCCUCCUCGCUGGCGCCGGGUGGGCAACAUUCCGAGGGGACCGUCCCCACGGUAAUGGCGAAUGGGACCCA [C36G U65A]
5. GGCCGGCAAGGUCCCAGCCUCCUCGCUGGCGCCGGCUGGGCAACAUUCCGAGGGGACCGUCCCCUCGGUAAUGUCGAAUGGGACCCA [U9A G74U]
6. GGCCGGCAUGGUCCCAGCCUCCUCGCUGGCGCCGGCUGGGCAACUUUCCGAGGGGACCGUCCCCUCGGUAAUGGCGAAUGGGACACA [A45U C85A]
7. GUCCGGCAUGGUCCCAGCUUCCUCGCUGGCGCCGGCUGGGCAACAUUCCGAGGGGACCGUCCCCUCGGUAAUGGCGAAUGGGACCCA [G2U C19U]
8. GGCCGGCAUGGUCCCAACCUCCUCGCUGGCGCCGGCUGGGCAACAUUCCGAGGGGACCGUCCCCUCGGUUAUGGCGAAUGGGACCCA [G17A A70U]

[0.562, 0.743, 0.237, 0.244, 0.585, 0.88, 0.0155, 0.616]

For each of the variants below, state self-cleavage.
1. GGCCGGCAUGGUACCAGCCUCCUCGCUGGCGCCGGCUGGGCAACAUUCCGAGGGGACCGUCCCCUCGGUAAUGGCUAAUGGGACCCA [C13A G76U]
2. GGCCGGCAUGGUCCCAGCCUCCUCGCUGGCGCCGGCUGGGCAACACUCCGCGGGGACCGUCCCCUCGGUAAUGGCGAAUGGGACCCA [U46C A51C]
3. GGCCGGCAUGGUCCUAGCCUCCUCGCUGGCGCCGGCUGGGCAACAUUCCGAGGGGACCGUCACCUCGGUAAUGGCGAAUGGGACCCA [C15U C62A]

[0.317, 0.504, 1.08]
